Data provenance: patent US4748161A

# test-details: Body weight of rats in method B
# Design: species or system male Wistar strain rats
# settings: rat, in vivo

compound	Body weight during feed period, 15th day [g]
COc1cc(C=C(C)C(=O)OC2CCC34CC35CCC3(C)C(C(C)CCC(C)=C(C)C)CCC3(C)C5CCC4C2(C)C)ccc1O (stereo not drawn) [Example 116]	193
COc1cc(C=C(C)C(=O)OC2CCC34CC35CCC3(C)C(C(C)CCC=C(C)C)CCC3(C)C5CCC4C2(C)C)ccc1O (stereo not drawn) [Example 114]	194
CCCOc1cc(C=C(C)C(=O)OC2CCC34CC35CCC3(C)C(C(C)CCC=C(C)C)CCC3(C)C5CCC4C2(C)C)ccc1O (stereo not drawn) [Example 146]	193
